molecular target: MALT1 (Homo sapiens (Human), UniProt Q9UDY8); test: MALT1 enzymatic activity inhibition (fluorescence, Ac-LRSR-AMC substrate); assay type: biochemical; conditions: recombinant MALT1 1.5 ng/μl, Ac-LRSR-AMC 1 μM
Sequence (Q9UDY8 whole entry): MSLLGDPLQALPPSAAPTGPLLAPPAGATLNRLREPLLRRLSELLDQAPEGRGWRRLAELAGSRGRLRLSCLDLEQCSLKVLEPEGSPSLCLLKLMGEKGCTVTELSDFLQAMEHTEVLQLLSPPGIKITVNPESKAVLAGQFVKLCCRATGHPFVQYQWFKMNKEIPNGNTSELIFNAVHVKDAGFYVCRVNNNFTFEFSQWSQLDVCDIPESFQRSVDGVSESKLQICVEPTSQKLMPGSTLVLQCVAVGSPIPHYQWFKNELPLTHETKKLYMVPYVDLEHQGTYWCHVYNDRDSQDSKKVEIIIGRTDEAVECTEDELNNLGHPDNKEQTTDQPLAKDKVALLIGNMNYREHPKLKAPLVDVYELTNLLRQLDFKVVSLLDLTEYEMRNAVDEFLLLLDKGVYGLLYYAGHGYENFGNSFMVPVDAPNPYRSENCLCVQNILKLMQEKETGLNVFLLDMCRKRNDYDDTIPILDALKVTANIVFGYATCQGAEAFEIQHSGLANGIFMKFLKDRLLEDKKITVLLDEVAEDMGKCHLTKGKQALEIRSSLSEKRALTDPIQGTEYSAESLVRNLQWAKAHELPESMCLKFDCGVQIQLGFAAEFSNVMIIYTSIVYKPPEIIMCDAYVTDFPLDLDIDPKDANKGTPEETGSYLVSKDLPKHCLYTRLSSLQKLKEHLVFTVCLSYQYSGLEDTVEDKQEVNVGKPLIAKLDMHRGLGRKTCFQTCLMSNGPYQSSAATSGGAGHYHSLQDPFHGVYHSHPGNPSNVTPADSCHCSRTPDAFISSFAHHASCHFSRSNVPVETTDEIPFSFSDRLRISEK
Would you kindly list EC50 for each of these compounds?

Prompt line: Quick check: EC50 of O=C1CCC(N2Cc3cc(N4CCN(CCCCCc5nc(-c6ncc(NC(=O)Nc7cnc8ccnn8c7C7CCCC7)cc6C(F)(F)F)no5)CC4)ccc3C2=O)C(=O)N1 (centres unmarked) ?
Response line: ≤ 0.2 µM

Prompt line: Quick check: EC50 of Cc1cc(NC(=O)Nc2cnc3ccnn3c2C2CCCC2)cnc1-c1noc(CCCCN2CCN(c3cc4c(cc3F)C(=O)N(C3CCC(=O)NC3=O)C4=O)CC2)n1 (centres unmarked) ?
Response line: ≤ 0.2 µM

Prompt line: What does the record list as EC50 for O=C1CCC(N2Cc3cc(N4CCN(CCCCCCc5nc(-c6ncc(NC(=O)Nc7cnc8ccnn8c7C7CCCC7)cc6C(F)(F)F)no5)CC4)ccc3C2=O)C(=O)N1 (centres unmarked) ?
Response line: ≤ 0.2 µM

Prompt line: State the recorded EC50 for this entry: Cc1cc(NC(=O)Nc2cnc3ccnn3c2C2CCCC2)cnc1-c1noc(CCC(=O)N2CCN(c3ccc4c(c3)CN(C3CCC(=O)NC3=O)C4=O)CC2)n1 (centres unmarked)
Response line: ≤ 0.2 µM

Prompt line: May I ask what EC50 has been recorded for COc1cc(-c2c(NC(=O)Nc3cnc(-n4cc(C(=O)NCCOCCOCCC(=O)N5CCN(c6ccc7c(c6)CN(C6CCC(=O)NC6=O)C7=O)CC5)cn4)c(C)c3)cnc3ccnn23)cc(OC)c1OC (centres unmarked) ?
Response line: > 5 µM

Prompt line: Could you share which EC50 value was measured for Cc1cc(NC(=O)Nc2cnc3ccnn3c2C(C)C)cnc1-c1nnc(CCCCCC(=O)N2CCN(c3ccc4c(c3)CN(C3CCC(=O)NC3=O)C4=O)CC2)s1 (centres unmarked) ?
Response line: 0.2 to 0.5 µM

Prompt line: Sample Cc1cc(NC(=O)Nc2cnc3ccnn3c2C2CCCC2)cnc1-c1noc(CCCCC(=O)Nc2cccc(C3CCC(=O)NC3=O)c2)n1 (centres unmarked) — what was its EC50?
Response line: 0.2 to 0.5 µM

Prompt line: Any idea what EC50 was measured for Cc1cc(NC(=O)Nc2cnc3ccnn3c2C2CCCCC2)cnc1-c1noc(CCCCC(=O)N2CCN(c3ccc4c(c3)CN(C3CCC(=O)NC3=O)C4=O)CC2)n1 (centres unmarked) ?
Response line: ≤ 0.2 µM

Prompt line: Can you share its EC50? I mean this compound: CC(C)c1c(NC(=O)Nc2cnc(-c3noc(CCCCCCN4CCN(c5ccc6c(c5)CN(C5CCC(=O)NC5=O)C6=O)CC4)n3)c(Cl)c2)cnc2ccnn12 (centres unmarked)
Response line: ≤ 0.2 µM

Prompt line: What EC50 value was documented for this compound, Cc1cc(NC(=O)Nc2cnc3ccnn3c2C(C)C)cnc1-c1noc(CCCC(=O)N2CCN(c3ccc4c(c3)CN(C3CCC(=O)NC3=O)C4=O)CC2)n1 (centres unmarked) ?
Response line: ≤ 0.2 µM

Prompt line: # get_value(readout='EC50', item= O=C1CCC(N2Cc3cc(N4CCN(C(=O)CCCCCc5nnc(-c6ccc(NC(=O)Nc7cnc8ccnn8c7C7CCCC7)cn6)o5)CC4)ccc3C2=O)C(=O)N1 (centres unmarked) )
Response line: 1 to 5 µM
